Sourced from patent US11019818B2

Tested on: rice (Oryza sativa)
TEST: Test B flooded paddy test, rice
Assay type: in vivo
CONDITION_DETAILS: Flood, 250 g ai/ha; applied to paddy water at 2-leaf stage; visual rating after 13 to 15 d; scale 0 to 100, 0 is no effect, 100 is complete control

| COMPOUND | Plant response rating, Rice |
| --- | --- |
| CC(=O)OC[C@@]1(C(=O)Nc2cccc(F)c2F)C(=O)N(C)C[C@@H]1c1ccc(C(F)(F)F)cc1 | 30 |
| CC(C)NC(=O)C1(C(=O)Nc2cccc(F)c2F)C(=O)N(C)CC1c1ccc(C(F)(F)F)cc1 (stereo not shown) | 0 |
| CN1C[C@H](c2ccc(C(F)(F)F)cc2)[C@](CO)(C(=O)Nc2cccc(F)c2F)C1=O | 0 |
| CN(C)CC1(C(=O)Nc2cccc(F)c2F)C(=O)N(C)CC1c1ccc(C(F)(F)F)cc1 (stereo not shown) | 0 |
| CCNC(=O)C1(C(=O)Nc2cccc(F)c2F)C(=O)N(C)CC1c1ccc(C(F)(F)F)cc1 (stereo not shown) | 30 |
| CC(=O)[C@@]1(C(=O)Nc2cccc(F)c2F)C(=O)N(C)C[C@@H]1c1ccc(C(F)(F)F)cc1 | 0 |
| CN1C[C@H](c2ccc(C(F)(F)F)cc2)[C@@](CO)(C(=O)Nc2cccc(F)c2F)C1=O | 25 |

---

Test system: foxtail, green (green foxtail, Setaria viridis)
TEST: Test A postemergence, green foxtail
Format: in vivo
CONDITION_DETAILS: 31 g ai/ha, 0 to 100 scale (0 no effect, 100 complete control), approx. 10 d
As shown below, each of these compounds has a reported Plant response rating, Foxtail, Green value.

| COMPOUND | Plant response rating, Foxtail, Green |
| --- | --- |
| CC(=O)[C@@]1(C(=O)Nc2cccc(F)c2F)C(=O)N(C)C[C@@H]1c1ccc(C(F)(F)F)cc1 [Compound 1] | 50 |
| CC(=O)OC[C@@]1(C(=O)Nc2cccc(F)c2F)C(=O)N(C)C[C@@H]1c1ccc(C(F)(F)F)cc1 [Compound 2] | 20 |
| CN1C[C@H](c2ccc(C(F)(F)F)cc2)[C@@](CO)(C(=O)Nc2cccc(F)c2F)C1=O [Compound 5] | 30 |

---

Tested on: ragweed (common ragweed, Ambrosia elatior)
TEST: Test A preemergence, ragweed
Assay type: in vivo
CONDITION_DETAILS: 31 g ai/ha, 0 to 100 scale (0 no effect, 100 complete control), approx. 10 d
From the text: Seeds of plant species selected from barnyardgrass (Echinochloa crus-galli), kochia (Kochia scoparia), ragweed (common ragweed, Ambrosia elatior), ryegrass, Italian (Italian ryegrass, Lolium multiflorum), foxtail, green (green foxtail, Setaria viridis), and pigweed (Amaranthus retroflexus) were planted into a blend of loam soil and sand and treated preemergence with a directed soil spray using test chemicals formulated in a non-phytotoxic solvent mixture which included a surfactant. […]

| MOLECULE | TARGET | Plant response rating, Ragweed |
| --- | --- | --- |
| CCNC(=O)C1(C(=O)Nc2cccc(F)c2F)C(=O)N(C)CC1c1ccc(C(F)(F)F)cc1 (stereo not drawn) | ragweed (common ragweed, Ambrosia elatior) | 0 |
| CN1C[C@H](c2ccc(C(F)(F)F)cc2)[C@](CO)(C(=O)Nc2cccc(F)c2F)C1=O | ragweed (common ragweed, Ambrosia elatior) | 0 |
| CC(C)NC(=O)C1(C(=O)Nc2cccc(F)c2F)C(=O)N(C)CC1c1ccc(C(F)(F)F)cc1 (stereo not drawn) | ragweed (common ragweed, Ambrosia elatior) | 0 |
